system: SNB-75 CNS; assay: NCI tumour cell line growth inhibition, 48 h
Measured Metric: log10(TGI) (log10 of the value in µM)
For clarity, the numbers are log10 values of TGI expressed in µM.

Molecule	Measured Metric	Meas Value
COc1ccc(/C=C2\N=C(N/N=C\C(O)C(O)C(O)C(O)CO)NC2=O)cc1 (stereo unspecified)	log10(TGI)	1.73

Batch of 3 molecules: report log10(TGI) for each.
1. CC1(C)Cc2c(cnn2-c2ccc(C(F)(F)F)cc2)-c2nc(-c3ccc(O)cc3)[nH]c21
2. COc1ccc(C(C)c2cc3c(cc2O)OCO3)cc1 (stereo unspecified)
3. CC1=C(C(=O)Nc2ccc(F)c(Cl)c2)C(c2cccc(Cl)c2)NC(=S)N1 (stereo unspecified)

Found:
[1.32, 1.78, 1.32]

Batch of 2 molecules: report log10(TGI) for each.
1. OCCCCC#Cc1ccccc1C#Cc1ccccn1
2. COC(=O)c1oc([N+](=O)[O-])c(Cl)c1Cl

Found:
1. 1.71
2. 1.32

###

system: MDA-MB-231 breast; assay: NCI tumour cell line growth inhibition, 48 h
Field: TGI. Provide a value for each of the compounds that follow.
Answers are plain numbers, in µM.

Compound	TGI (µM)
C=C1CC(C)(COc2ccc3c(C)c(C)c(=O)oc3c2C)OC1=O (stereo unspecified)	7.8
CN(C)CCCNc1ccnc2cccc([N+](=O)[O-])c12	39.6
O=C(c1ccc(Cl)c(Cl)c1)N1CCN(C(=O)c2ccc(Cl)c(Cl)c2)C1=S	33.3
COc1nc(-c2c[nH]c3ccccc23)cnc1N	59.1

// moving on: another record for TGI
Lookup: Give its TGI value. Item: C=C1CC2(CC(c3ccccc3OC)OC(c3ccccc3OC)C2)OC1=O (stereo unspecified)
Found: 3.45

###

system: COLO 205 colon; assay: NCI tumour cell line growth inhibition, 48 h
Measured Metric: TGI (µM)
One number for each entry, in µM.

Below, 4 molecules whose answers are already recorded.
Molecule	TGI [µM]
C=C1CC(C)(COc2ccc3c(C)c(C)c(=O)oc3c2C)OC1=O (configuration not stated)	2.75
CC1CCC2C(C)(C)CC3(C)CCC1C23O (configuration not stated)	33.2
O=C(C1OC1c1ccc(F)cc1)C12CC3CC(CC(C3)C1)C2 (configuration not stated)	30.9
Cc1nc2ccccc2nc1NNc1ccccc1	1.03

Batch of 8 molecules: report TGI for each.
1. COC(=O)Cc1cc2c(cc1C(=O)c1ccc(N)cc1)OCO2
2. CC1(C)Cc2c(cnn2-c2ccc(C(F)(F)F)cc2)-c2nc(-c3ccc(O)cc3)[nH]c21
3. Clc1ccc2c(N3CCN(c4ccnc(NC5CCCCC5)n4)CC3)ccnc2c1
4. CNC(=O)c1ccccc1Nc1cc(Nc2ccc(N3CCOCC3)cc2OC)ncc1C(F)(F)F
5. O=c1cc(-c2ccccc2)nc(-n2[nH]c3c(c2=O)CCCC3)[nH]1
6. CC[C@H](C)[C@H](NC(=O)c1ccccn1)C(=O)N(C)[C@H](C[C@@H](OC(C)=O)c1nc(C(=O)N[C@@H](Cc2ccccc2)C[C@H](C)C(=O)OC)cs1)C(C)C
7. COc1nc(N)c(N=O)c(OCc2ccccc2)n1
8. Cc1ccc(S(=O)(=O)c2ccccc2)cc1

Found:
1: 10; 2: 35.6; 3: 3.43; 4: 1.37; 5: 40.8; 6: 42; 7: 2.37; 8: 6.3

Batch of 5 molecules: report TGI for each.
1. COC(=O)c1oc([N+](=O)[O-])c(Cl)c1Cl
2. CN(CCCNCc1ccccn1)Cc1ccccc1O
3. COc1cc2c(c(O)c1OC)C(=O)C1CCC(=O)N1C2c1cccc2ccccc12 (configuration not stated)
4. CC(C)(C)c1ccc(O)c(CN(Cc2c(O)ccc3ccccc23)C2CCCCC2)c1
5. CC[N+](CC)=c1cc2oc3cc(N(C)C)ccc3nc-2cc1C

Found:
1: 8.61; 2: 94.4; 3: 32.8; 4: 29.3; 5: 2.27

Data provenance: PubChem BioAssay (NCI)
